Tested on: P12-ICHIKAWA
Experiment: selective drug sensitivity score (sDSS, relative to normal bone marrow) (sDSS (score)); higher = more potent and effective on the cell line relative to normal bone marrow cells;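 also: ALL cell lines in 384-well plates, five doses spanning 10,000-fold, each plate scaled between vehicle and 100 µmol/L benzalkonium chloride controls, sDSS an adapted area-under-curve metric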
Settings: 72 h
satisfied means recorded selective drug sensitivity score is 5 or above; not satisfied means it is below 5.

[[record]]
compound = "CCNC(=O)c1noc(-c2cc(C(C)C)c(O)cc2O)c1-c1ccc(CN2CCOCC2)cc1 [Luminespib] (top concentration 1000 nM)"
assignedclass = "not satisfied"

[[record]]
compound = "CNC(=O)c1cc(Oc2ccc(NC(=O)Nc3ccc(Cl)c(C(F)(F)F)c3)c(F)c2)ccn1 [Regorafenib] (top concentration 10000 nM)"
assignedclass = "not satisfied"

[[record]]
compound = "CN(C)Cc1c(C(=O)NCCOc2ccc(C(=O)NO)cc2)oc2ccccc12 [Abexinostat] (top concentration 10000 nM)"
assignedclass = "not satisfied"

[[record]]
compound = "Cc1cc(Nc2cc(N3CCN(C)CC3)nc(Sc3ccc(NC(=O)C4CC4)cc3)n2)n[nH]1 [Tozasertib] (top concentration 10000 nM)"
assignedclass = "satisfied"

[[record]]
compound = "CC(=O)[C@]1(O)Cc2c(O)c3c(c(O)c2[C@@H](O[C@H]2C[C@H](N)[C@H](O)[C@H](C)O2)C1)C(=O)c1ccccc1C3=O [Idarubicin] (top concentration 1000 nM)"
assignedclass = "satisfied"

[[record]]
compound = "CC(=O)N(O)CCCCCNC(=O)CCC(=O)N(O)CCCCCNC(=O)CCC(=O)N(O)CCCCCN [Deferoxamine] (top concentration 10000 nM)"
assignedclass = "not satisfied"


---

Tested on: SEM cells
Test: selective drug sensitivity score (sDSS, relative to normal bone marrow) (sDSS (score)); higher = more potent and effective on the cell line relative to normal bone marrow cells
Settings: 72 h
In this scheme, each record receives a class according to its selective drug sensitivity score; the ranges are low-valued (below 0.2), mid-valued (0.2 to below 5), high-valued (5 or more)

[[record]]
compound = "Cc1ccc(NC(=O)c2ccc(CN3CCN(C)CC3)cc2)cc1Nc1nccc(-c2cccnc2)n1 [Imatinib] (top concentration 10000 nM)"
assignedclass = "low-valued"

[[record]]
compound = "COc1c(OCCCN2CCOCC2)ccc2c1N=C(NC(=O)c1cnc(N)nc1)N1CCN=C21 [Copanlisib] (top concentration 1000 nM)"
assignedclass = "mid-valued"

[[record]]
compound = "CC[C@]1(O)C[C@H]2CN(CCc3c([nH]c4ccccc34)[C@@](C(=O)OC)(c3cc4c(cc3OC)N(C)[C@H]3[C@@](O)(C(=O)OC)[C@H](OC(C)=O)[C@]5(CC)C=CCN6CC[C@]43[C@@H]65)C2)C1 [Vinblastine] (top concentration 1000 nM)"
assignedclass = "high-valued"

[[record]]
compound = "N#Cc1ccc2[nH]c(O)c(-c3ccc(CN4CCOCC4)cn3)c2c1 [AZD-1080] (top concentration 10000 nM)"
assignedclass = "mid-valued"

[[record]]
compound = "COc1ccc(-c2nc(N3CCOCC3)c3sc(CN(C)c4ncc(C(=O)NO)cn4)cc3n2)cn1 [Fimepinostat (CUDC-907)] (top concentration 10000 nM)"
assignedclass = "high-valued"

[[record]]
compound = "O=C(NOC[C@H](O)CO)c1ccc(F)c(F)c1Nc1ccc(I)cc1F (top concentration 1000 nM)"
assignedclass = "low-valued"

[[record]]
compound = "Nc1nc2[nH]cnc2c(=S)[nH]1 [Thioguanine] (top concentration 10000 nM)"
assignedclass = "high-valued"

[[record]]
compound = "COc1cc(OC)cc(N(CCNC(C)C)c2ccc3ncc(-c4cnn(C)c4)nc3c2)c1 [Erdafitinib] (top concentration 1000 nM)"
assignedclass = "mid-valued"

[[record]]
compound = "Cc1ccc(NC(=O)c2ccc(CN3CC[C@H](N(C)C)C3)c(C(F)(F)F)c2)cc1Nc1nccc(-c2cncnc2)n1 [Bafetinib] (top concentration 1000 nM)"
assignedclass = "low-valued"

[[record]]
compound = "COc1cc2nccc(Oc3ccc(NC(=O)NC4CC4)c(Cl)c3)c2cc1C(N)=O [Lenvatinib] (top concentration 2500 nM)"
assignedclass = "mid-valued"

